- EXPERIMENTAL_SYSTEM: T1, recombinant HLA-DQ8/gliadin peptide (human)
- T1 chain 1: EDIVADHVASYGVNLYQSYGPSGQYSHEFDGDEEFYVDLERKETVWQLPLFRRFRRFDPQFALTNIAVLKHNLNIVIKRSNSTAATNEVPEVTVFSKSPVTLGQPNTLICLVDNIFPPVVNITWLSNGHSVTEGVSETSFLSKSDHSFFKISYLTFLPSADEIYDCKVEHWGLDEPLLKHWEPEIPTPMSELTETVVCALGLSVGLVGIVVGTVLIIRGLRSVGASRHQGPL
- T1 chain 2: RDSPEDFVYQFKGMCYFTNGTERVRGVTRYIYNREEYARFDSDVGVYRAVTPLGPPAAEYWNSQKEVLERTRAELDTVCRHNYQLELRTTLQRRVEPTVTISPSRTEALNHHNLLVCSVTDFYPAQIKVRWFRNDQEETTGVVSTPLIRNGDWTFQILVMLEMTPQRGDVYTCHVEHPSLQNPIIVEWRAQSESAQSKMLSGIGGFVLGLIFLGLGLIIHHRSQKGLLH
- ASSAY_REMARKS: SPR Biacore T200, 37 C, pH 7.4; antibody captured by anti-human Fc, pMHC injected; 1:1 model
ASSAY_ENDPOINT: kon

INSERT INTO measurements (binder, assay_endpoint, measured_result) VALUES
  ('DQN0177 (antibody, human IgG1, kappa, V domains shown, also called DQN0177aa) VH: QSVEESGGRLVTPGTPLTLTCTVSGFSLSSYAMSWVRQAPGKGLEWIGVISYSGRTYDASWAKGRFTISKTSTTVDLKITSPTTEDTATYFCARVGDSYGYAYATVIFTYHFNLWGPGTLVTVSS VL: DPVLTQTPSSASEPVGGTVTIKCQASESISSSLAWYQQKPGQRPKLLIYDASKLASGVPSRFKGSGSGTEFTLTISGVQCDDAATYYCQHGLSSGSTNRCAFGGGTKVEIKR', 'kon', '374000 M⁻¹ s⁻¹'),
  ('DQN0100 (antibody, human IgG1, kappa, V domains shown, Rabbit variable regions with F1332m and hkOMC constant regions; also called DQN0100aa) VH: QQQLEESGGGLVKPGASLTLTCKGSGFSFTSGYWICWVRQAPGKGLEWIGCIYTGSSGSTYYASWAKGRFTISRSSTTVTLQMTSLTVADTATYFCAGDPSGASSGWDNLWGPGTLVTVSS VL: AFELTQTPSSVEAAVGGTVTIKCQASQTIVSWLAWYQQKPGQRPKLLILYASNLASGVSSRFRGSGSGTDYTLTISDLECDDAATYYCQSYYFSTSSPDMYAFGGGTKVEIKR', 'kon', '236000 M⁻¹ s⁻¹'),
  ('DQN0157 (antibody, human IgG1, kappa, V domains shown, Rabbit variable regions with F1332m and hkOMC constant regions; also called DQN0157cc) VH: QSLEESGGDLVKPGASLTLTCTASGFSFSSSYYMCWVRQAPGKGLEWIACIYTGSSGSTYYPSWAKGRFTISKTSSTTVTLQMTSLTAADTATYFCARVRAGSGYYYFNLWGPGTLVTVSS VL: DIVMTQTPSSVSAAVGGTVTIKCQASQTIYSGLAWYQQKPGQPPKLLIYDASDLASGVPSRFSGSGSGTEFTLAISGVQCDDAATYYCHGDYYGGSGTFFWTFGGGTKVEIKR', 'kon', '146000 M⁻¹ s⁻¹'),
  ('DQN0092 (antibody, human IgG1, kappa, V domains shown, Rabbit variable regions with F1332m and hkOMC constant regions; also called DQN0092hh) VH: QSVEESGGRLVTPGTPLTLTCTVSGFSLSSYYISWVRQAPGKGLEWIGIIYTDGVTDYPNWAKGRFTISKTSTTVDLKITSPTTEDTATYFCARDAASVYGCGYFDLWGPGTLVTVSS VL: TFKLTQTPASVEAAVGGTVTIKCQASESNGNALAWYQQKPGQPPKLLIYRAFTLASGVPSRLKGSGSGTQFALTISDLECADAATYYCQTYYGSNTDFNAFGGGTKVEIKR', 'kon', '168000 M⁻¹ s⁻¹');
